species: Rattus norvegicus
observed property: Decrease
Hi, when you answer, please include the unit after the number. Thanks!

Bench note: what Decrease did O=C(C1CCCCC1)N(CCN1CCN(c2ccccc2OS(=O)(=O)C(F)(F)F)CC1)c1ccccn1 show?
1.5 °C

Bench note: what Decrease did O=C(C1CCCCC1)N(CCN1CCN(c2ccccc2OCCCF)CC1)c1ccccn1 show?
2.4 °C

Bench note: what Decrease did O=C(C1CCCCC1)N(CCN1CCN(c2ccccc2OCCF)CC1)c1ccccn1 show?
1.8 °C

Bench note: what Decrease did CS(=O)(=O)Oc1ccccc1N1CCN(CCN(C(=O)C2CCCCC2)c2ccccn2)CC1 show?
1.1 °C

Bench note: what Decrease did O=C(C1CCCCC1)N(CCN1CCN(c2ccccc2O)CC1)c1ccccn1 show?
0.6 °C

Bench note: what Decrease did CCCN(CCC)C1CCc2cccc(O)c2C1 (stereo unspecified) [8-OH-DPAT] show?
2 °C
